tested on: NF-κB; test: NF-κB reporter gene assay (TNF-α stimulated A549/NF-κB-luc cells); type: cell-based; settings: Homo sapiens, TNF-α stimulation
Consider the following compounds; for each one, report its pIC50.
Would you please state pIC50, meaning minus log10 of the concentration in mol/L, as a bare number?

*Q* With NF-κB as the test system, provide measured pIC50 for this compound: Cc1sc2c(c1C)C(c1ccc(Cl)cc1)=NN(CCc1ccccc1)c1nnc(C)n1-2 [Example 19]
*A* 5.88

*Q* Provide measured pIC50 on NF-κB for COc1ccnc(CN2N=C(c3ccc(Cl)cc3)c3c(sc(C)c3C)-n3c(C)nnc32)c1 [Example 48] please.
*A* 6.53

*Q* Give pIC50 for Cc1sc2c(c1CO)C(c1ccc(N)cc1)=NN(Cc1cccnc1)c1nnc(C)n1-2 [Example 107] tested on NF-κB.
*A* 5.63

*Q* Tell me pIC50 of Cc1sc2c(c1C)C(c1ccc(Cl)cc1)=NN(Cc1cccnc1CO)c1nnc(C)n1-2 [Example 86] when tested on NF-κB.
*A* 7.02

*Q* # lookup: NF-κB pIC50, key = Cc1sc2c(c1C)C(c1ccc(Cl)cc1)=NN(Cc1ccc(C(F)(F)F)cc1)c1nnc(C)n1-2 [Example 14]
*A* 6.56

*Q* Provide NF-κB pIC50 reading for CC(=O)Nc1ccc(C2=NN(Cc3cccnc3)c3nnc(C)n3-c3sc(C)c(C)c32)cc1 [Example 71] .
*A* 6.20

*Q* Given Cc1sc2c(c1C)C(c1ccc(Cl)cc1)=NN(Cc1ccccc1)c1nnc(C)n1-2 [Example 3] , report its pIC50 on NF-κB.
*A* 7.28

*Q* Please indicate recorded pIC50 of CC(=O)Nc1ncccc1CN1N=C(c2ccc(Cl)cc2)c2c(sc(C)c2C)-n2c(C)nnc21 [Example 82] measured with NF-κB.
*A* 6.87

*Q* Lab note: NF-κB assay, enter pIC50 for Cc1sc2c(c1C)C(c1ccc(Cl)cc1)=NN(Cc1ccnc(F)c1)c1nnc(C)n1-2 [Example 42] here
*A* 5.94

----------
Assay: Pharmacokinetics test in rats (oral administration)
Format: in vivo, LEW/CrlCrlj rats
Conditions: plasma, 1 h after oral 2 mg/mL solution at 5 mL/kg, mean n = 4
Method: In order to evaluate the transition of plasma concentration of the present compound after oral administration, pharmacokinetics was evaluated in rats. The specific method is described below. Appropriate amounts of Example 71 and various salts thereof were weighed, triturated with an agate mortar, and suspended or dissolved in 1% methyl cellulose solution to 2 mg/mL (as a converted quantity of Example 71 considering the correction of purify). […]
parameter: Concentration (ng/mL), sampling time 1 h
# number only, unit ng/mL dropped from output

*Q* Note Concentration (ng/mL), sampling time 1 h for the compound shown: CC(=O)Nc1ccc(C2=NN(Cc3cccnc3)c3nnc(C)n3-c3sc(C)c(C)c32)cc1.O=C(O)/C=C\C(=O)O [1 Maleate of Example 71]
*A* 42.9

*Q* # return recorded Concentration (ng/mL), sampling time 1 h for input CC(=O)Nc1ccc(C2=NN(Cc3cccnc3)c3nnc(C)n3-c3sc(C)c(C)c32)cc1.Cl [1 Hydrochloride of Example 71]
*A* 34.0

*Q* Query Concentration (ng/mL), sampling time 1 h for CC(=O)Nc1ccc(C2=NN(Cc3cccnc3)c3nnc(C)n3-c3sc(C)c(C)c32)cc1.CC(=O)Nc1ccc(C2=NN(Cc3cccnc3)c3nnc(C)n3-c3sc(C)c(C)c32)cc1.O=C(O)/C=C/C(=O)O [0.5 Fumarate of Example 71]
*A* 11.3

*Q* State its Concentration (ng/mL), sampling time 1 h for this compound: CC(=O)Nc1ccc(C2=NN(Cc3cccnc3)c3nnc(C)n3-c3sc(C)c(C)c32)cc1.CC(=O)Nc1ccc(C2=NN(Cc3cccnc3)c3nnc(C)n3-c3sc(C)c(C)c32)cc1.O=C(O)CCC(=O)O [0.5 Succinate of Example 71]
*A* 36.2

*Q* Give me measured Concentration (ng/mL), sampling time 1 h, please, for this compound: CC(=O)Nc1ccc(C2=NN(Cc3cccnc3)c3nnc(C)n3-c3sc(C)c(C)c32)cc1.Cc1ccc(S(=O)(=O)O)cc1 [1 Tosylate of Example 71]
*A* 34.7
